Molecular target: aurora B (Homo sapiens)
Sequence (Q96GD4 whole entry): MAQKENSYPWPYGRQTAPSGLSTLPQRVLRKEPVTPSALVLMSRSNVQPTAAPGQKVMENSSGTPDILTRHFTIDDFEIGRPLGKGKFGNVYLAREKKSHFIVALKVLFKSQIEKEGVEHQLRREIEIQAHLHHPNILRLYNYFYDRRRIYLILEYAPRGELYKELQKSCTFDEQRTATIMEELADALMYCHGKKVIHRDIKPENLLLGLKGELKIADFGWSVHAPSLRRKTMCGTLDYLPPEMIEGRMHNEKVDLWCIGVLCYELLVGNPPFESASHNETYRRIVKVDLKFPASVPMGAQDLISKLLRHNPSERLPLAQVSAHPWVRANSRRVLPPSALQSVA
Test: radioisotope-based P81 filter-binding assay, aurora B kinase
Type: biochemical
Conditions: read-out: Enzyme assay IC50 Aur B
reported.metric: IC50 (nM)
Give bare numbers, in nM.

Using the record for COc1ccc(C(=O)NC(=O)Nc2cc3c(cc2F)/C(=C/c2[nH]c(C)c(CCC(=O)O)c2C)C(=O)N3)cc1 [D51] , report its IC50.
3

====

System: A549 human lung carcinoma cells
Test: anti-proliferation, SRB colorimetric assay, A549
Assay type: cell-based
Conditions: concentration required for 50% growth inhibition, read-out: IC50 (μM, mean ± S.D.)
reported.metric: IC50 (µM)
Numbers only, in µM.

Example entries and their recorded answers appear below.
>>> obs_value("COc1ccc(C(=O)NC(=O)Nc2ccc3c(c2)NC(=O)/C3=C\\c2[nH]c(C)c(C(=O)NCCN3CCCC3)c2C)c(F)c1 [D70]")
0.56
>>> obs_value("O=C1Nc2cc(NC(=O)c3c[nH]cc(-c4ccccc4)c3=O)ccc2/C1=C/c1ccc[nH]1 [D127]")
0.49
>>> obs_value("O=C1Nc2cc(NC(=O)c3c[nH]cc(-c4cc(F)cc(F)c4)c3=O)ccc2/C1=C/c1ccc[nH]1 [D136]")
0.6
>>> obs_value("Cc1[nH]c(/C=C2\\C(=O)Nc3cc(NC(=O)NC(=O)c4ccccc4F)ccc32)c(C)c1CCC(=O)O [D54]")
0.11
>>> obs_value("COc1ccc(-c2c[nH]cc(C(=O)Nc3ccc4c(c3)NC(=O)/C4=C\\c3ccc[nH]3)c2=O)cc1 [D128]")
0.62

Respectfully, I request IC50 for each entry included below.
1. CCN(CC)CCNC(=O)c1c(C)[nH]c(/C=C2\C(=O)Nc3cc(NC(=O)NC(=O)c4ccc(OC)cc4F)ccc32)c1C [D69]
2. O=C1Nc2cc(NC(=O)c3c[nH]cc(-c4ccc(C(F)(F)F)cc4)c3=O)ccc2/C1=C/c1ccc[nH]1 [D133]

1: 0.46; 2: 0.45
